Target: Transient receptor potential cation channel subfamily A member 1 (Rattus norvegicus, UniProt Q6RI86)
Sequence (Q6RI86 whole entry): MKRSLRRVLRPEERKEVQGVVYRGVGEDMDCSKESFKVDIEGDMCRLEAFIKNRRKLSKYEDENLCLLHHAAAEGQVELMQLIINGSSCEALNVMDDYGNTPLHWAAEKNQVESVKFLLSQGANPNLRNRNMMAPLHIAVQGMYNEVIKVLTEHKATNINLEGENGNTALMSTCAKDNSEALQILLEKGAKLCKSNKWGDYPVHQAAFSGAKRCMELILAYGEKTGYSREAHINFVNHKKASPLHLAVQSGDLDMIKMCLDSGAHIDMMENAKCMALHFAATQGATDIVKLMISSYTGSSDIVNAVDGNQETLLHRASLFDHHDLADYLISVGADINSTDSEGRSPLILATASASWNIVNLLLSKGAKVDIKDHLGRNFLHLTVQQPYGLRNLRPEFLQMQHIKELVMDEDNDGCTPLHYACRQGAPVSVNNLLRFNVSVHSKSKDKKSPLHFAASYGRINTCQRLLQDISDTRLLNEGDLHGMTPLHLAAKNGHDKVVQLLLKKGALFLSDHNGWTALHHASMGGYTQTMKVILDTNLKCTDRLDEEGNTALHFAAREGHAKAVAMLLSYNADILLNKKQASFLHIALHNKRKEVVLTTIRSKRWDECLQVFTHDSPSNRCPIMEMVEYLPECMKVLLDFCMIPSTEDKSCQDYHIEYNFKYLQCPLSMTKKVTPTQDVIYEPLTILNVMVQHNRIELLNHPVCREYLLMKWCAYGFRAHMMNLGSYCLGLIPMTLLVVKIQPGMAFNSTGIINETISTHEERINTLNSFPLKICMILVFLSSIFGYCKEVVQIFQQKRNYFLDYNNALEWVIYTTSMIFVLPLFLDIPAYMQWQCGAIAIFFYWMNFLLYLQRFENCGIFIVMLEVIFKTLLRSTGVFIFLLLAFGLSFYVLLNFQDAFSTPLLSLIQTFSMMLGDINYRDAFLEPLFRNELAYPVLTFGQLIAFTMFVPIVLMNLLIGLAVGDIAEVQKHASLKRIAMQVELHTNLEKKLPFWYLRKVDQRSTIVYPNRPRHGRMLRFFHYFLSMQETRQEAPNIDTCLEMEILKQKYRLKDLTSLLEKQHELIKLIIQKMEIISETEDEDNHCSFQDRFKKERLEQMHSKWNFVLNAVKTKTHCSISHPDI
Assay: Agonist activity at rat TRPA1 receptor expressed in HEK293 cells assessed as intracellular calcium stimulation
// returns false unless EC50 is strictly below 10 µM, in which case true

Some solved entries appear below for comparison.
{"mol": "COc1ccc(OC(=O)N[C@@H]2C[C@H](C)CC[C@H]2C(C)C)cc1", "qualitative.label": "true"}
{"mol": "CC(C)[C@@H]1CC[C@@H](C)C[C@H]1NC(=O)NC12CC3CC(CC(C3)C1)C2", "qualitative.label": "false"}
{"mol": "CC(C)[C@@H]1CC[C@@H](C)C[C@H]1NC(=O)Oc1ccc(C(F)(F)F)cc1", "qualitative.label": "true"}

Hello, I'm reviewing records and need to know if EC50 of `CC(C)[C@@H]1CC[C@@H](C)C[C@H]1NC(=O)c1ccc(Cl)cc1` is below 10 µM. Could you check?
false

Please state whether EC50 is below 10 µM for `CC(C)[C@@H]1CC[C@@H](C)C[C@H]1NC(=O)Oc1ccc(C(C)(C)C)cc1`
false

Answer whether the compound `CC(C)[C@@H]1CC[C@@H](C)C[C@H]1NC(=O)CCCCCCc1ccccc1` has EC50 strictly less than 10 µM
true
